- target_or_system: HIV Env of isolate X2088_C9 (clade G) (HIV)
- test_protocol: cell-based or functional assay
Item-by-item account of IC50 (µg/ml) with constrains
measured_property: IC50 (µg/ml) with constrains (µg/mL)

binder	units_text	censoring_operator	reported_result
PGDM1400 (antibody, V domains shown) VH: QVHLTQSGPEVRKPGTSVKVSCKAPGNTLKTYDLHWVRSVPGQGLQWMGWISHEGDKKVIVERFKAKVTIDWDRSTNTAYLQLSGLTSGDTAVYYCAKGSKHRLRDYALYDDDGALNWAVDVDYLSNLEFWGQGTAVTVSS VL: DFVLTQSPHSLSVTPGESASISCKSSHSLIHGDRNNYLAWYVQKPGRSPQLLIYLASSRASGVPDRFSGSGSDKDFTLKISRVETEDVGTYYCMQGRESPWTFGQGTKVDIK	µg/mL	>	100
ePGDM9 (antibody, V domains shown) VH: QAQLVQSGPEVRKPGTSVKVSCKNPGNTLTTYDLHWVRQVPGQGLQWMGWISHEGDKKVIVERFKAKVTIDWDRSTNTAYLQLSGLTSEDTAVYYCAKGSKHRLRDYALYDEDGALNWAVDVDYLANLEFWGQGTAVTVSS VL: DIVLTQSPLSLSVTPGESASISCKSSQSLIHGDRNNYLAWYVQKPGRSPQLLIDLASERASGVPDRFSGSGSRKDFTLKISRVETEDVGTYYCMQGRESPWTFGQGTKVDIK	µg/mL	>	100
ePGDM5 (antibody, V domains shown) VH: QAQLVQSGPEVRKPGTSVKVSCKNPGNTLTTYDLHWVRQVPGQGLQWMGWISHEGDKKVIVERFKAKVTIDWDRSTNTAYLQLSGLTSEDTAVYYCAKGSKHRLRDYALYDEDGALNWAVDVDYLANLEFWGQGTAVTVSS VL: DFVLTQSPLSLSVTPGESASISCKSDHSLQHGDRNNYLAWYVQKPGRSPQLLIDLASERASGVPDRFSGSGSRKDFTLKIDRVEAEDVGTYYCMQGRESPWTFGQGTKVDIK	µg/mL	=	28.6
ePGDM13 (antibody, V domains shown) VH: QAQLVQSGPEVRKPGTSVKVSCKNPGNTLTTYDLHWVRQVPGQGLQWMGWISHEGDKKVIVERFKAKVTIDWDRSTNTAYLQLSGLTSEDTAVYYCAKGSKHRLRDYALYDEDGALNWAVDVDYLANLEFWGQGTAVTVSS VL: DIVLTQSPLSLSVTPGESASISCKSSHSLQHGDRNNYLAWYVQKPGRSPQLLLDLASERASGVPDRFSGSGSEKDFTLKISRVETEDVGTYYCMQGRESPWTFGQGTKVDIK	µg/mL	=	64.1

Where these numbers come from: patent US20230134571A1
